Data provenance is patent US20170210751A1.

Listing of recorded EC50 by entry.
system: Z-138 cell line; assay: Z-138 Proliferation Assay (Cell Titer Glo); format: cell-based; details: Homo sapiens, 120 h; Z-138 cells, 5 days incubation, ATP (Cell Titer Glo)

compound: CC(=O)N1CCC(Nc2cc(C(=O)NC[C@H](O)CN3CCc4[nH]cnc4C3)ccn2)CC1
EC50: > 5 µM

compound: CC(=O)N1CCC(Nc2cc(C(=O)NC[C@H](O)CN3CCc4c(cnn4C)C3)ncn2)CC1
EC50: > 5 µM

compound: O=C(COc1cccc2cccnc12)NCC(O)CN1CCc2cnccc2C1 (stereo not drawn)
EC50: > 5 µM

---

test system: Symmetric di-Methyl Arginine in Z-138 cells; test: Z-138 Methylation Assay (In Cell Western for symmetric di-methyl arginine); assay type: cell-based; conditions: Homo sapiens, 96 hours incubation, symmetric di-methyl arginine normalised to DNA content, read-out: ICW EC50

smiles code: CC(=O)N1CCC(Nc2cc(C(=O)NC[C@H](O)CN3CCc4cccnc4C3)ncn2)CC1
EC50: 0.101 to 1 µM

smiles code: CC(=O)N1CC(Nc2cc(C(=O)NC[C@H](O)CN3CCc4nc(N)sc4C3)ncn2)C1
EC50: > 1 µM

smiles code: CC(=O)N1CC(Nc2cc(C(=O)NC[C@H](O)CN3CCc4ncccc4C3)ncn2)C1
EC50: 0.101 to 1 µM

smiles code: CC(=O)N1CCC(Nc2cc(C(=O)NC[C@H](O)CN3CCc4sc(N)nc4C3)ncn2)CC1
EC50: > 1 µM

smiles code: CC(=O)N1CC(Nc2cc(C(=O)NC[C@H](O)CN3CCc4sc(C)nc4C3)ncn2)C1
EC50: > 1 µM
